TEST_METHOD_NOTES: Cytotoxicity against human […] cells after 96 hrs by MTS assay
Type: cell-based
METRIC_NAME: CC50 at 96 h

CCOC(=O)[C@H](C)NP(=O)(OC[C@H]1O[C@@H](n2cnc3c(NC4CC4)nc(N)nc32)[C@](C)(F)[C@@H]1O)Oc1ccccc1 (some centres not stated); > 100 µM
CC(C)OC(=O)[C@H](C)NP(=O)(OC[C@H]1O[C@@H](n2cnc3c(O)nc(N)nc32)[C@](C)(F)[C@@H]1O)Oc1ccccc1 (some centres not stated); > 100 µM
CCOc1nc(N)nc2c1ncn2[C@@H]1O[C@H](COP(=O)(N[C@@H](C)C(=O)OC(C)C)Oc2ccccc2)[C@@H](O)[C@@]1(C)F (some centres not stated); > 100 µM

Requested field: CC50 at 96 h. Item: CCCOc1nc(N)nc2c1ncn2[C@@H]1O[C@H](COP(=O)(N[C@@H](C)C(=O)OC)Oc2ccccc2)[C@@H](O)[C@@]1(C)F (some centres not stated) 39 µM

Please report the recorded CC50 at 96 h for COC(=O)[C@H](C)NP(=O)(OC[C@H]1O[C@@H](n2cnc3c(N4CCC4)nc(N)nc32)[C@](C)(F)[C@@H]1O)Oc1ccccc1 (some centres not stated) . > 100 µM

If you can, please state the reported CC50 at 96 h value of CCOC(=O)[C@H](C)NP(=O)(OC[C@H]1O[C@@H](n2cnc3c(N4CCC4)nc(N)nc32)[C@](C)(F)[C@@H]1O)Oc1ccccc1 (some centres not stated) . 84 µM

# CC50 at 96 h lookup, item COC(=O)[C@H](C)NP(=O)(OC[C@H]1O[C@@H](n2cnc3c(NC4CC4)nc(N)nc32)[C@](C)(F)[C@@H]1O)Oc1ccccc1 (some centres not stated) > 100 µM
